- assay text: Cmax in Wistar rat at 5 mg/kg, iv
- Format: ADME, organism-based
- Parameters: dose 5 mg/kg, route intravenous
- experimental context: in vivo

input smiles: CC(C)c1ccc(S(=O)(=O)n2cc(N3CCN(C)CC3)c3ccccc32)cc1
Cmax, ng/mL: 365

###

- assay text: Half life in Wistar rat at 5 mg/kg, po
- Type: ADME, organism-based
- Set-up: dose 5 mg/kg, route oral
- experimental context: in vivo
quantity name: half-life (min)

input smiles: CC(C)c1ccc(S(=O)(=O)n2cc(N3CCN(C)CC3)c3ccccc32)cc1
units label: min
result value: 141

###

- assayed system: 5-hydroxytryptamine receptor 6 (Homo sapiens, UniProt P50406)
- Sequence (P50406 whole entry): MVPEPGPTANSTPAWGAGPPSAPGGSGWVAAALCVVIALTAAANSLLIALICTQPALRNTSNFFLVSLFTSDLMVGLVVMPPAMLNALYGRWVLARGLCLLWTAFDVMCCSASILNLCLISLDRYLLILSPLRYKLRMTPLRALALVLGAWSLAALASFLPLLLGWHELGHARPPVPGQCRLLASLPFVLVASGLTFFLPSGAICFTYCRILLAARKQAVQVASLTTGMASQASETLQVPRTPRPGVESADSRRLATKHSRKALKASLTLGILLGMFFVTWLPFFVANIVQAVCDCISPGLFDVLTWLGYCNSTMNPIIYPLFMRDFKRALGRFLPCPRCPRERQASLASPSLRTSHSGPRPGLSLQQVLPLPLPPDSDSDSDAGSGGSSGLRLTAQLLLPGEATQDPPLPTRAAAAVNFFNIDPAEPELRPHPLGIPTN
- assay text: Antagonist activity at human recombinant 5HT6 receptor expressed in CHO cells assessed as inhibition of 5-HT-stimulated cAMP accumulation by luminometry
IC50 overview

input smiles: CN1CCN(c2cn(S(=O)(=O)c3ccc(F)cc3)c3ccccc23)CC1
assayed system: 5-hydroxytryptamine receptor 6 (Homo sapiens, UniProt P50406)
IC50 / nM: 292
//
input smiles: CC(C)c1ccc(S(=O)(=O)n2cc(N3CCN(C)CC3)c3ccccc32)cc1
assayed system: 5-hydroxytryptamine receptor 6 (Homo sapiens, UniProt P50406)
IC50 / nM: 310
//
input smiles: CN1CCN(c2cn(S(=O)(=O)c3ccc(F)cc3)c3ccc(Br)cc23)CC1
assayed system: 5-hydroxytryptamine receptor 6 (Homo sapiens, UniProt P50406)
IC50 / nM: 322
//
input smiles: CCN1CCN(c2cn(S(=O)(=O)c3ccc(F)cc3)c3ccc(Cl)cc23)CC1
assayed system: 5-hydroxytryptamine receptor 6 (Homo sapiens, UniProt P50406)
IC50 / nM: 1780
//
input smiles: CN1CCN(c2cn(S(=O)(=O)c3cccc(Cl)c3)c3ccc(Br)cc23)CC1
assayed system: 5-hydroxytryptamine receptor 6 (Homo sapiens, UniProt P50406)
IC50 / nM: 1530

###

IC50 data for Cytochrome P450 2D6 (Homo sapiens, UniProt P10635) follow.

input smiles: CC(C)c1ccc(S(=O)(=O)n2cc(N3CCN(C)CC3)c3ccccc32)cc1
units label: µM
IC50: 39.2
--
input smiles: CN1CCN(c2cn(S(=O)(=O)c3ccc(F)cc3)c3ccccc23)CC1
units label: µM
IC50: 26.4

###

- assay text: AUC in Wistar rat at 5 mg/kg, po
- Type: ADME, organism-based
- Parameters: dose 5 mg/kg, route oral
- experimental context: plasma
quantity name: AUC (ng·h/mL)

input smiles: CC(C)c1ccc(S(=O)(=O)n2cc(N3CCN(C)CC3)c3ccccc32)cc1
quantity name: AUC
result value: 59

###

Kb overview
- assayed system: 5-hydroxytryptamine receptor 6 (Homo sapiens)
- assay text: Antagonist activity at human recombinant 5HT6 receptor expressed in CHO cells assessed as inhibition of 5-HT-stimulated cAMP accumulation by luminometry
- Type: functional, cell-based

input smiles: CN1CCN(c2cn(S(=O)(=O)c3cccc(Cl)c3)c3ccc(Br)cc23)CC1
Kb, nM: 3
//
input smiles: CC(C)c1ccc(S(=O)(=O)n2cc(N3CCN(C)CC3)c3ccccc32)cc1
Kb, nM: 0.53
//
input smiles: CCN1CCN(c2cn(S(=O)(=O)c3ccc(F)cc3)c3ccc(Cl)cc23)CC1
Kb, nM: 3.5
//
input smiles: CN1CCN(c2cn(S(=O)(=O)c3ccc(F)cc3)c3ccccc23)CC1
Kb, nM: 0.5
//
input smiles: CN1CCN(c2cn(S(=O)(=O)c3ccc(F)cc3)c3ccc(Br)cc23)CC1
Kb, nM: 0.6

###

- assay text: Cmax in Wistar rat at 5 mg/kg, po
- Type: ADME, organism-based
- Parameters: dose 5 mg/kg, route oral
- experimental context: in vivo

input smiles: CC(C)c1ccc(S(=O)(=O)n2cc(N3CCN(C)CC3)c3ccccc32)cc1
Cmax / µg/mL: 0.04

###

- assay text: AUC in Wistar rat at 5 mg/kg, iv
- Assay type: ADME, organism-based
- Design: dose 5 mg/kg, route intravenous
- experimental context: plasma

input smiles: CC(C)c1ccc(S(=O)(=O)n2cc(N3CCN(C)CC3)c3ccccc32)cc1
AUC [ng·h/mL]: 674
